# EXPERIMENTAL TARGET: NK1 (Homo sapiens, UniProt P25103)
# Sequence (P25103 whole entry): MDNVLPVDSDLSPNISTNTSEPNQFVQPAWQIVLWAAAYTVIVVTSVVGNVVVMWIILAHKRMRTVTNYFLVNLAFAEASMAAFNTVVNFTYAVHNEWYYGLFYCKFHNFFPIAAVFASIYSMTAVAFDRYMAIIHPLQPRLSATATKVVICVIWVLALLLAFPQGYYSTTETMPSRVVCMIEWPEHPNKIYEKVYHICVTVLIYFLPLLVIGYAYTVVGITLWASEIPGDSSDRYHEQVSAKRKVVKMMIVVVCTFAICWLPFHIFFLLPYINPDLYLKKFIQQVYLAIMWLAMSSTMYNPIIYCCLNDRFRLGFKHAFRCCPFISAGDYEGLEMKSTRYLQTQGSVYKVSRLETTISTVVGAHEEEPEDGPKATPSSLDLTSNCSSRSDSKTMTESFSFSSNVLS
# TEST METHOD NOTES: Substance P NK1 receptor binding, 125I-Bolton Hunter Substance P, human astrocytoma cells (U-373 MG)
# Design: host or cells: U-373 MG human astrocytoma cells (intact monolayer)
# CONDITION CONTEXT: U-373 MG cells; 125I-Bolton Hunter Substance P; Ki calculated from IC50; read-out: Ki Human Astrocytoma Cells (Substance P antagonist potency)
pKi: −log10 of the molar value.

COMPOUND | pKi
O=C1N[C@@H](Cc2ccccc2)C(=O)N2[C@H]3Nc4ccccc4C3([C@]34C[C@H]5C(=O)N[C@@H](Cc6ccccc6)C(=O)N5[C@H]3Nc3ccccc34)C[C@@H]12 (stereo partly shown) | 6.62

====

# EXPERIMENTAL TARGET: NK1 (Homo sapiens, UniProt P25103)
# TEST METHOD NOTES: NK1 functional assay: Substance P-induced 45Ca2+ efflux from human astrocytoma U373MG cells
# Assay type: cell-based
# Design: Human astrocytoma cells (U--373 MG, ATCC No. HTB 17) were cultured in 75-mL flasks; host or cells: U-373 MG human astrocytoma cells (intact monolayer)
# CONDITION CONTEXT: read-out: IC50, inhibition of Substance P-induced 45Ca2+ efflux
RECORDED METRIC: IC50 (nM)

COMPOUND | REPORTED VALUE
O=C1N[C@@H](Cc2ccccc2)C(=O)N2[C@H]3Nc4ccccc4C3([C@]34C[C@H]5C(=O)N[C@@H](Cc6ccccc6)C(=O)N5[C@H]3Nc3ccccc34)C[C@@H]12 (stereo partly shown) | 600

====

# EXPERIMENTAL TARGET: NK2 receptor (Homo sapiens)
# Sequence (P21452 whole entry): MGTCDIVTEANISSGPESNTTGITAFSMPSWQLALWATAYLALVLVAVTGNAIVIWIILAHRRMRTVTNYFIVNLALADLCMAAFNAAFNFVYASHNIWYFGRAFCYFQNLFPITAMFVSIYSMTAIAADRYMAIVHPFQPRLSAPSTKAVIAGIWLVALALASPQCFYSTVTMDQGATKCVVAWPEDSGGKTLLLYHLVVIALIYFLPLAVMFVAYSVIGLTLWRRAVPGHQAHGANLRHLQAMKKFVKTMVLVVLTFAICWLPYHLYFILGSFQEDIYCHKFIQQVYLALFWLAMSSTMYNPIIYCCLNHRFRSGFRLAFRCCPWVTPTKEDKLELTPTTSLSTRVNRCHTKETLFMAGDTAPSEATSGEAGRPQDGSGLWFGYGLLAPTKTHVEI
RECORDED METRIC: Ki (nM)

MOLECULE | RESULT UNIT | REPORTED VALUE
O=C1N[C@@H](Cc2ccccc2)C(=O)N2[C@H]3Nc4ccccc4C3([C@]34C[C@H]5C(=O)N[C@@H](Cc6ccccc6)C(=O)N5[C@H]3Nc3ccccc34)C[C@@H]12 (stereo partly shown) | nM | 720
